Values were extracted from ChEMBL document CHEMBL3885861.

# Organism: Rattus norvegicus
# measurement.protocol: Open TG-GATES - Regimen: Single
# Assay type: toxicity, organism-based, Sprague-Dawley
# Set-up: regimen Single, gender Male, age 6 weeks
# applied.conditions: in vivo, po, 1000 mg/kg, 3 h, tissue Plasma, route gavage, dose level High

compound: CNC(=C[N+](=O)[O-])NCCSCc1ccc(CN(C)C)o1 [RANITIDINE]
unit.of.measurement: meq/L
Cl: 104.4

compound: COC(=O)C1=C(C)NC(C)=C(C(=O)OC)C1c1ccccc1[N+](=O)[O-] [NIFEDIPINE]
unit.of.measurement: meq/L
Cl: 97.2

compound: Cc1nnc2n1-c1ccc(Cl)cc1C(c1ccccc1Cl)=NC2 [TRIAZOLAM]
unit.of.measurement: meq/L
Cl: 102.6

compound: CN/C(=N/CCSCc1nc[nH]c1C)NC#N [CIMETIDINE]
unit.of.measurement: meq/L
Cl: 104.4

compound: O=C(OC[C@H]1O[C@@H](OC(=O)c2cc(O)c(O)c(OC(=O)c3cc(O)c(O)c(O)c3)c2)[C@H](OC(=O)c2cc(O)c(O)c(OC(=O)c3cc(O)c(O)c(O)c3)c2)[C@@H](OC(=O)c2cc(O)c(O)c(OC(=O)c3cc(O)c(O)c(O)c3)c2)[C@@H]1OC(=O)c1cc(O)c(O)c(OC(=O)c2cc(O)c(O)c(O)c2)c1)c1cc(O)c(O)c(OC(=O)c2cc(O)c(O)c(O)c2)c1 [TANNIC ACID]
unit.of.measurement: meq/L
Cl: 104.6
